List of pIC50 values.
# MEASURED_ON: Poly(ADP-ribose) glycohydrolase (Homo sapiens, UniProt Q86W56)
# Sequence (Q86W56 whole entry): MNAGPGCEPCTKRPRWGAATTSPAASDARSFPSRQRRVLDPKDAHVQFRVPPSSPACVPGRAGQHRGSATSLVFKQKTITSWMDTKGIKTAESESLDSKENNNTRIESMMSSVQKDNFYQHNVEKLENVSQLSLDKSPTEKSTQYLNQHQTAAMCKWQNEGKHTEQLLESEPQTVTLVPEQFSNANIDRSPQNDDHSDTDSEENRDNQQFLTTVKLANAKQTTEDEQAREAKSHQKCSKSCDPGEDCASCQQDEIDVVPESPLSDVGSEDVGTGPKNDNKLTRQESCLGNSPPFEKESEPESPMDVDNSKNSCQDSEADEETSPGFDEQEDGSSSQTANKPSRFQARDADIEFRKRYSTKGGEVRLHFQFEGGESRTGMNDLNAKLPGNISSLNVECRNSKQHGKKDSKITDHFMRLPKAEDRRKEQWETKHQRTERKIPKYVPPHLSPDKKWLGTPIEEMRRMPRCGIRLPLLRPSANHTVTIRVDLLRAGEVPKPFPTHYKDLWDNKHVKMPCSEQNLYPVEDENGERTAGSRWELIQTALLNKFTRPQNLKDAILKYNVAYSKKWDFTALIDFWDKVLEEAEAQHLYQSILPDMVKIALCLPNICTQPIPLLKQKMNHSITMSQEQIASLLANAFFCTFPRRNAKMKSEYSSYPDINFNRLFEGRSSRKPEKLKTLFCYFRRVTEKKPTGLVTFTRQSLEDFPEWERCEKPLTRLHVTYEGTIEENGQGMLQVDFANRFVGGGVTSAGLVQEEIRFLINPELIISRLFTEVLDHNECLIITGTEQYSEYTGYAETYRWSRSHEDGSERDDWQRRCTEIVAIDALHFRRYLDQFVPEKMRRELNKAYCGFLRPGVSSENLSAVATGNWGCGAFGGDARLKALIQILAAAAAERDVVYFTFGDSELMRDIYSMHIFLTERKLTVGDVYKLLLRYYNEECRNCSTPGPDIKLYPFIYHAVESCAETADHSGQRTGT
Remember the convention: pIC50 equals -log10 of concentration in molar.

Worked cases, answers included:
{"COMPOUND": "Cn1cc(Cn2c(=O)c3cc(S(=O)(=O)NC4(C)CC4)sc3n(Cc3ccc4cncn4c3)c2=O)cn1 [US20240083908, Example 40]", "pIC50": 8.39}
{"COMPOUND": "CN(C)CCN(C)c1ccc(Cn2c(=O)n(Cc3cnn(C)c3)c(=O)c3cc(S(=O)(=O)NC4(C)CC4)sc32)cc1F [US20240083908, Example 78]", "pIC50": 6.95}
{"COMPOUND": "Cn1cc(Cn2c(=O)c3cc(S(=O)(=O)NC4(C)CC4)sc3n(-c3ccc(F)cc3)c2=O)cn1 [US20240083908, Example 136]", "pIC50": 6.07}

Please report the recorded pIC50 for Cn1cc(Cn2c(=O)c3cc(S(=O)(=O)NC4(C)CC4)sc3n(Cc3ccc4c(c3)CC(=O)N4)c2=O)cn1 [US20240083908, Example 130] .
8.52

Param item: Cc1nc(C)c(Cn2c(=O)n(Cc3cnn(CCO)c3)c(=O)c3cc(S(=O)(=O)NC4(C)CC4)sc32)s1 [US20240083908, Example 104b]
6.92

Param item: Cn1cc(Cn2c(=O)c3cc(S(=O)(=O)NC4(C)CC4)sc3n(Cc3cc4c(cc3F)COC4)c2=O)cn1 [US20240083908, Example 110]
7.77

Param item: Cc1ncc(Cn2c(=O)c3cc(S(=O)(=O)NC4(C)CC4)sc3n(Cc3cc(C(C)C)nn3C)c2=O)s1 [US20240083908, Example 107]
7.15

Param item: CN1CCC(Cn2c(=O)n(Cc3cnn(C)c3)c(=O)c3cc(S(=O)(=O)NC4(C)CC4)sc32)CC1 [US20240083908, Example 98]
5.23

Param item: Cc1nc(C)c(Cn2c(=O)n(Cc3cnn(C)c3)c(=O)c3cc(S(=O)(=O)NC4(C)CC4)sc32)s1 [US20240083908, Example 25]
7.89

Param item: Cn1cc(Cn2c(=O)c3cc(S(=O)(=O)NC4(C)CC4)sc3n(C3CCNCC3)c2=O)cn1 [US20240083908, Example 91]
6.57

Param item: CC1(NS(=O)(=O)c2cc3c(=O)n(Cc4nc5c(s4)CCCC5)c(=O)n(Cc4ccc5c(c4)COC5)c3s2)CC1 [US20240083908, Example 106]
6.00

Param item: CNCCN(C)c1ccc(Cn2c(=O)n(Cc3cnn(C)c3)c(=O)c3cc(S(=O)(=O)NC4(C)CC4)sc32)cc1F [US20240083908, Example 77]
7.15

Param item: Cn1cc(Cn2c(=O)c3cc(S(=O)(=O)NC4(C)CC4)sc3n(Cc3ccc(OC4CC4)cc3)c2=O)cn1 [US20240083908, Example 68]
7.20

Param item: CNCCC(=O)N1CCC(n2c(=O)n(Cc3cnn(C)c3)c(=O)c3cc(S(=O)(=O)NC4(C)CC4)sc32)CC1 [US20240083908, Example 95]
6.49

Param item: CC(=O)N1CCC(n2c(=O)n(Cc3cnn(C)c3)c(=O)c3cc(S(=O)(=O)NC4(C)CC4)sc32)CC1 [US20240083908, Example 92]
6.64

Param item: COc1cc(Cn2c(=O)n(Cc3cnn(C)c3)c(=O)c3cc(S(=O)(=O)NC4(C)CC4)sc32)ccc1F [US20240083908, Example 121]
7.70

Param item: Cn1cc(Cn2c(=O)c3cc(S(=O)(=O)NC4(C#N)CC4)sc3n(Cc3ccc4c(c3)COC4)c2=O)cn1 [US20240083908, Example 100]
7.38

Param item: Cc1ncc(Cn2c(=O)c3cc(S(=O)(=O)NC4(C)CC4)sc3n(CCCN(C)C)c2=O)s1 [US20240083908, Example 8]
6.20

Param item: Cc1nc(C)c(Cn2c(=O)n(Cc3ccc(Cl)nc3)c(=O)c3cc(S(=O)(=O)NC4(C)CC4)sc32)s1 [US20240083908, Example 105]
7.30

Param item: Cn1cc(Cn2c(=O)c3cc(S(=O)(=O)NC4(C)CC4)sc3n(Cc3ccc4c(c3)COC4)c2=O)cn1 [US20240083908, Example 28]
8.00

Param item: Cn1cc(Cn2c(=O)c3cc(S(=O)(=O)NC4(C)CC4)sc3n(Cc3ccc4oc(CO)cc4c3)c2=O)cn1 [US20240083908, Example 64]
7.82

Param item: COc1ccc(Cn2c(=O)n(Cc3cnn(C)c3)c(=O)c3cc(S(=O)(=O)NC4(C)CC4)sc32)cc1 [US20240083908, Example 50]
7.40

Param item: Cn1cc(Cn2c(=O)c3cc(S(=O)(=O)NC4(C)CC4)sc3n(Cc3ccc4cn[nH]c4c3)c2=O)cn1 [US20240083908, Example 36]
8.28
